Cited source for all entries: PubChem BioAssay

biological target: Luciferin 4-monooxygenase (Photinus pyralis) (UniProt P08659); assay: firefly luciferase enzyme inhibitors, primary screen, biochemical, luminescence, purified enzyme, 2006 set (AID 1141); conditions: SteadyGlo luminescence, 30 min, higher = more signal, called active from +8 up or from −8 down;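 also: cell-free assay with purified firefly luciferase at 100 ng per well in PBS; test concentration not given here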
Sequence (P08659 whole entry, looked up): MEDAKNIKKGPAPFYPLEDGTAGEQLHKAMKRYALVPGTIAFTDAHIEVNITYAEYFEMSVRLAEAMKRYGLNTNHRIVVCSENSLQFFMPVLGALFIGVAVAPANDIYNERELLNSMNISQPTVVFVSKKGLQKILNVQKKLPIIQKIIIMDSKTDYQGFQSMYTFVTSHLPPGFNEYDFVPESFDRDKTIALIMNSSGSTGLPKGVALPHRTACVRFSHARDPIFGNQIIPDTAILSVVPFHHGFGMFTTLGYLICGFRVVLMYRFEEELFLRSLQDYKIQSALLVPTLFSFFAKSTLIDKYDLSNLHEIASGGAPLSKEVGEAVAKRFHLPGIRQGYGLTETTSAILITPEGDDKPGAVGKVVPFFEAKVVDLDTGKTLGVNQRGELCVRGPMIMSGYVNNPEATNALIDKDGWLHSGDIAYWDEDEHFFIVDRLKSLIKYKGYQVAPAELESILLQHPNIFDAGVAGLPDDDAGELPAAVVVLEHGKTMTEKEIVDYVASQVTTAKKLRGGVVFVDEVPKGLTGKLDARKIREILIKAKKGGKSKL
The following molecules are listed with their measured z-score values.
Form rule: numeric answer, no unit written next to it.

Quick one: z-score of `C=C/C=C/[C@@H]1C(=C)CN([C@@H](Cc2ccccc2)C(=O)OC)[C@H]1[C@@H](O)Cc1ccccc1` ?
-0.053

Others:
Give its z-score value. Item: `CCOC(=O)C[C@H]1[C@H](OC(=O)c2ccc(-c3ccccc3)cc2)[C@@H](NC(=O)Cc2ccc(OC)cc2)c2cc(OCCCO)ccc2N1C(=O)Cc1ccc(OC)cc1`
-0.754

Form field: reported z-score of `Cc1ccc(S[C@]2(C(=O)NC(C)C)CC(=O)N(C(C)C)[C@@H]2c2ccc(CO)cc2I)cc1`
1.11

What does the data say about its z-score? Entry: `CN(C)C(=O)[C@@]1(CCC(=O)OC(C)(C)C)N=C(c2ccc(OCCCO)cc2)O[C@H]1c1ccccc1CN=[N+]=[N-]`
-0.659

* * *

molecular target: Dihydroorotate dehydrogenase (quinone), mitochondrial (Plasmodium falciparum (isolate 3D7)) (UniProt Q08210); test: PfDHODH enzyme inhibitors, primary screen, biochemical, C-terminal His tag, absorbance 600 nm (AID 1175); conditions: DCIP absorbance 600 nm, higher = more signal, called active from +8 up or from −8 down;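 also: recombinant parasite enzyme with a five histidine tag at its C terminus; test concentration not given here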
Sequence (Q08210 whole entry, looked up): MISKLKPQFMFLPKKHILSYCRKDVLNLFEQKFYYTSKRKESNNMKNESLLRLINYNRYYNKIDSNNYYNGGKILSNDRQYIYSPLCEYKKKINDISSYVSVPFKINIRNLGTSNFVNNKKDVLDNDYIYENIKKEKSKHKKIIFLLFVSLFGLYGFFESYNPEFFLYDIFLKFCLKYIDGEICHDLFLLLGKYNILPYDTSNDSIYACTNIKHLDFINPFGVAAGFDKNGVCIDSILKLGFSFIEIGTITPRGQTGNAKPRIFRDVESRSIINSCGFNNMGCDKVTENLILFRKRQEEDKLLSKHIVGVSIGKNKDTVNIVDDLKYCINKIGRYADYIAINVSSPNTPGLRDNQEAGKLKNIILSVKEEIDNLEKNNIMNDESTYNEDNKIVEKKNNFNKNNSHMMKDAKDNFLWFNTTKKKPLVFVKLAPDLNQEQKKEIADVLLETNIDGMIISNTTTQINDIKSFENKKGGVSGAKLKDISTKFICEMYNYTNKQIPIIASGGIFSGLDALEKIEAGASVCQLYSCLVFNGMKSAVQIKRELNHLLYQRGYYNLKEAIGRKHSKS
property label: composite z-score
Please give the numeric answer without any surrounding text.

Worked cases, answers included:
Looking for the measured composite z-score of `COCC(=C=CC[C@H](O)c1cccc(OCCO)c1)C[C@H](O)COCc1ccccc1` , can you help?
-1.65

Would you mind telling me what composite z-score value was observed for `C=C[C@@H](C)[C@@H](OC(=O)Nc1ccc(SC)cc1)c1ccc(OCCO)cc1` ?
0.05

Please report the recorded composite z-score for `NC(=O)[C@H]1[C@@H]2C(=O)O[C@@H](c3ccccc3)[C@@H](c3ccccc3)N2[C@@H](c2ccc(O)cc2)[C@]12C(=O)Nc1ccccc12` .
0.0023

Now take the following compound into account.
Give the measured composite z-score of `Cc1cccc([C@H]2C[C@H]3C(Br)=C[C@@H]2C(=O)[C@]32CO2)c1` .
0.288

* * *

experiment: Plasmodium falciparum growth inhibition, primary screen, strain 3D7, DAPI fluorescence, 100 nL (AID 1184);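 also: parasites grown inside human red blood cells in medium with human serum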; details: P. falciparum 3D7 growth, 3 d, higher = more signal
Respond with Satisfied for z-score values of -2 and above, Not satisfied for values below.

Identify whether the reported z-score of the following molecule is -2 or greater: COC(=O)C1=CC(CCCO)=CC(c2ccc(CN3CCCC3)cc2)N(Cc2cc3c(cc2Br)OCO3)C=C1C(=O)OC (stereo not given)
Satisfied

---
Is z-score at least -2? Consider CC1CC/C=C\[C@H]2OC34C=CCN(C(C)(C)C)C(=O)[C@H]3N(C(CO)C(C)C)C(=O)[C@@H]4C2C(=O)O1 (stereo not given in full)
Satisfied

For this molecule, is measured z-score -2 or higher? `C=C(COC)C(=O)CC[C@H](OC(C)=O)c1ccc(OCCO)cc1`
Not satisfied

Could you tell me if the measured z-score of `C=C[C@@H](C)[C@H](O)c1ccc(OCCO)cc1` reaches -2 or more?
Satisfied

* * *

test: basal RPMI8226 viability, no added stimulus, profiling panel, cell-based, calcein-AM fluorescence, 48 h, PK04 Diversity Set (AID 1166); details: RPMI8226 myeloma viability, higher = more signal;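 also: cells grown under basal conditions without added stimulus; test concentration not given here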
z-score by entry:
Number only, please.

// solved cases for z-score follow
Given the entry `CC(C)CNC(=O)[C@@H]1c2ccccc2C(=O)N(C2CCCCC2)[C@H]1c1ccc(CO)cc1` , report its measured z-score.
0.424

Please give the measured z-score for this compound: CCCCCN1CC=CC23O[C@@H]4/C=C\CCC(C)OC(=O)C4[C@H]2C(=O)N(CCCCCCO)[C@@H]3C1=O (some centres undefined)
0.656

Entry under review: `C=C[C@@H](OC)[C@H](OC(=O)Nc1ccc(OC)cc1)c1ccc(OC)c(O)c1` . Reported z-score?
1.05

New cases:
Which measured z-score value corresponds to `C[C@]1(C(=O)NCCN2CCOCC2)c2ccccc2C(=O)N(Cc2cc(F)cc(C(F)(F)F)c2)[C@H]1c1ccc(CO)cc1` ?
0.231

* * *

experiment: small-molecule binders of probe aNOTCH2, primary screen, biochemical, small-molecule microarray, 635/667 nm fluorescence (AID 1121); conditions: higher = more signal;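 also: score merges feature fluorescence read at 667 nm with its signal to noise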
# if value of composite z-score reaches -0.07, tag T; if it stays below, tag F

Take a look at these entries with their results.
Is composite z-score for `CC(=O)NCCCC[C@@H]1NC(=O)[C@H]2C[C@@H](C(=O)NCCCCCNC(=O)CS)[C@@H](c3cccc(OCCO)c3)N2C1=O` at or above -0.07?
F

Reported composite z-score reaches at least -0.07 for `COc1ccc([Si](C)(C)[C@H]2[C@H](CC(=O)N3Cc4ccccc4C[C@H]3CO)O[C@@]3(C(=O)N(Cc4ccc(N5C(=O)c6cccc7cccc5c67)cc4)c4ccccc43)[C@@H]2C)cc1` ?
F

Is the recorded value of composite z-score equal to or greater than -0.07 for this compound? `CN1C(=O)[C@@]2(Cc3ccccc3)N=C(c3ccc(OCCCO)cc3)O[C@H]2c2ccccc21`
T

Form field: composite z-score at least -0.07? Entry: `CCCCC(=C=CC[C@H](O)c1ccc(OCCO)cc1)C[C@H](O)c1cc(Cl)cc(Cl)c1O`
F

Next:
Given O=C1C2C=CC(C(O)c3cccc(O)c3)N(Nc3ccccc3)C2C(=O)N1c1ccccc1 (centres undefined) , state whether its composite z-score is at least -0.07.
F

Does the reported composite z-score for `[N-]=[N+]=Nc1ccccc1C[C@]1(C(=O)NCc2ccccc2)COC(c2ccc(OCCCO)cc2)=N1` fall at or above the -0.07 mark?
F

* * *

experiment: P. aeruginosa biofilm formation inhibitors, primary screen, PAO1 strain, BacTiter-Glo luminescence, LB-PBS (AID 1144); conditions: 12 h, higher = more signal
Activity calls are given as the source filed them. The rule behind the calls is not given here.
Item-by-item account of z-score

Use the examples below as a reference point.
Please look up its z-score: `C=C(/C(=C/C[C@@H](OC(C)=O)c1ccc(OCCO)cc1)c1cc(C(=O)OC)ccc1OC)C(C)C`
1.03 (inactive)

For the compound `O=c1cccc(-c2ccco2)o1` , what z-score is on record?
0.329 (inactive)

Request the reported z-score associated with `C=CCNC(=O)[C@@H]1[C@H]2C(=O)O[C@H](c3ccccc3)[C@H](c3ccccc3)N2[C@H](c2ccc(O)cc2)[C@@]12C(=O)Nc1ccc(C#CCC(C(=O)OC)C(=O)OC)cc12`
-1.02 (inactive)

Continuing:
Report z-score for `Cc1ccc([C@H]2C(C(=O)O)=C[C@@H](C(C)(C)C)N2S(=O)(=O)c2ccc(C)cc2)cc1` please.
0.62 (inactive)

* * *

# composite z-score per entry
experiment: small-molecule microarray binders of probe aDKK1, primary screen, biochemical, biotinylated probe, 635/667 nm fluorescence (AID 1099); conditions: higher = more signal;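 also: score merges 667nm spot fluorescence with signal to noise across triplicate slides; reference of the scale not given here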

Example entries begin here.
Recorded composite z-score of `COC(=O)C(CC#Cc1ccc2c(c1)[C@]1(C(=O)N2)[C@H](c2ccc(OCCO)cc2)N2[C@H](c3ccccc3)[C@H](c3ccccc3)OC(=O)[C@H]2[C@@H]1C(=O)N1CCN(c2ncccn2)CC1)C(=O)OC` , please.
0.841

Which composite z-score value belongs to `C=C(/C(=C/C[C@@H](OC(=O)c1ccncc1)c1cccc(OCCO)c1)c1cnc2ccccc2c1)C(C)C` ?
0.0215

Can you look up the measured composite z-score of CC(C)C[C@@H]1NC(=O)[C@@]23C(=O)N[C@@H](Cc4ccccc4)C2[C@H](C)[C@@]2(C)O[C@H]2C3/C=C/C/C=C\CNC(=O)[C@@H](C)NC1=O (stereo partly drawn) for me?
-0.416

So what does the record say about composite z-score for `CC(=O)NCCCC[C@@H]1NC(=O)[C@@H]2C[C@H](C(=O)NCCCCCCN)[C@H](c3cccc(OCCO)c3)N2C1=O` ?
0.504

For the compound `O=C1O[C@H](c2ccccc2)[C@H](c2ccccc2)N2[C@H]1[C@@H](C(=O)O)[C@]1(C(=O)Nc3ccc(C#CC4(O)CCCCCC4)cc31)[C@H]2c1ccc(O)cc1` , what composite z-score is on record?
-0.2

---
For `C=C(/C(=C/C[C@@H](OC(C)=O)c1ccc(OCCO)cc1)c1cc(C(=O)OC)ccc1OC)C(C)C` , what is its reported composite z-score?
0.0968

Entry under review: C=CCC(OC(C)=O)[C@@H]1[C@@H](N(Cc2ccc(-c3cccc(C(F)(F)F)c3)o2)C(=O)c2cccc3ccccc23)c2cc(OCCCO)ccc2N1C(=O)Cc1ccc(OC)cc1 (stereo partly drawn) . Reported composite z-score?
-0.291

Sample CCN(CC)c1ccc(N2CC=CC34O[C@@H]5C=CCCOC(=O)C5[C@H]3C(=O)N(CCO)[C@@H]4C2=O)cc1 (stereo partly drawn) — what was its composite z-score?
-0.289

Which measured composite z-score value corresponds to CC(C)[C@H]1NC(=O)[C@@]23C(=O)N[C@@H](Cc4ccccc4)C2[C@H](C)[C@@]2(C)O[C@H]2C3/C=C/C/C=C\CNC(=O)[C@H](Cc2ccccc2)NC1=O (stereo partly drawn) ?
-0.38
